biological target: CAMK2D (human); assay: KINOMEscan competition binding; details: compound 10.0 µM
measurement type: kinase still bound, per cent of control (%)
Please reply with the bare figure in % and do not write the unit itself.

Bench note: what kinase still bound, per cent of control did COc1cc(C(=O)NC2CCN(C)CC2)ccc1Nc1ncc2c(n1)N(C1CCCC1)CCC(=O)N2C(C)C show? 100

And then CN(C)C/C=C/C(=O)Nc1cccc(Nc2ncc3c(n2)N(C)c2ccccc2C(=O)N3C)c1 , what is it? 62

And then C=CC(=O)Nc1cc(NC(=O)c2ccc(C)c(NC(=O)c3ccno3)c2)cc(C(F)(F)F)c1 , what is it? 83

And then OCCCNc1cc(-c2ccnc(Nc3cccc(Cl)c3)n2)ccn1 , what is it? 100

And then C=CC(=O)Nc1cccc(Oc2nc(Nc3ccc(N4CCN(C)CC4)cc3OC)ncc2Cl)c1 , what is it? 100

And then CCOc1cc2ncc(C#N)c(Nc3ccc(OCc4ccccn4)c(Cl)c3)c2cc1NC(=O)/C=C/CN(C)C , what is it? 100

And then N#Cc1c(NC(=O)c2cccc3ccccc23)sc2c1CCCC2 , what is it? 93

---

biological target: UniProt P00533; assay: KINOMEscan competition binding; details: compound 10.0 µM
Sequence (P00533 whole entry, looked up): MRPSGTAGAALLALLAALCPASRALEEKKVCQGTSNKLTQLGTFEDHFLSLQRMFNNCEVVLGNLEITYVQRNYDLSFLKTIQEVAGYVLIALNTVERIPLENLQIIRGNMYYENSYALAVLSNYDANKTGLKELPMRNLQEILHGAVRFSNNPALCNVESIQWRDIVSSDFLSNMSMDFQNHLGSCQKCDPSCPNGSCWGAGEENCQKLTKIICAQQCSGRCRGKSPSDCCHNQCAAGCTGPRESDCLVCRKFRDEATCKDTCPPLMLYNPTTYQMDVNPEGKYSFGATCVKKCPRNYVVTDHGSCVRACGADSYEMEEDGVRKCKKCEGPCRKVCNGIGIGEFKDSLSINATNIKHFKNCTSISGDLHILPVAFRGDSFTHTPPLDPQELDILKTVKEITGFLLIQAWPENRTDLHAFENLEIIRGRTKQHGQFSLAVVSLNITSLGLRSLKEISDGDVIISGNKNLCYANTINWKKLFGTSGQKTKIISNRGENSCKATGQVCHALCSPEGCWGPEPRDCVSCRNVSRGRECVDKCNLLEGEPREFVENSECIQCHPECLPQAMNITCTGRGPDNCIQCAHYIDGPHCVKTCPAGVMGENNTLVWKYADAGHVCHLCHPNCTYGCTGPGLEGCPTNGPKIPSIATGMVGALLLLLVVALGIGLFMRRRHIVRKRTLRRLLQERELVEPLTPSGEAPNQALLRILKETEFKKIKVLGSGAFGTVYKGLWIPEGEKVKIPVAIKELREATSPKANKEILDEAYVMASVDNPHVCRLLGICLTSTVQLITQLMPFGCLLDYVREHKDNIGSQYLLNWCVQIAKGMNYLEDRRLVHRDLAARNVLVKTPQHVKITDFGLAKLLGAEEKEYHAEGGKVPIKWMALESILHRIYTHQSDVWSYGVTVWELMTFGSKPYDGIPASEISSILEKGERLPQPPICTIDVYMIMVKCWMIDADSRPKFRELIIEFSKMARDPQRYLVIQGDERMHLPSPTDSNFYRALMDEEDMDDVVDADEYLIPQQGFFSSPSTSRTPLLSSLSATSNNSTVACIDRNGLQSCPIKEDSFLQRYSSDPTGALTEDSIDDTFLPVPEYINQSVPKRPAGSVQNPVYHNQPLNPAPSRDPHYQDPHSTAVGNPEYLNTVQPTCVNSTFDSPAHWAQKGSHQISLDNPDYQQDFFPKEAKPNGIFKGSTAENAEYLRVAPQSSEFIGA
Quick list: kinase still bound, per cent of control per entry.
Please reply with the bare figure in % and do not write the unit itself.

Bench note: what kinase still bound, per cent of control did CCC(=O)N1CCN(c2ccc(-n3c(=O)ccc4cnc5ccc(-c6cnc7ccccc7c6)cc5c43)cc2C(F)(F)F)CC1 show? 85

And then Cc1ccc(NC(=O)c2cccc(C(C)(C)C#N)c2)cc1Nc1ccc2ncn(C)c(=O)c2c1 , what is it? 37

And then Nc1ccc(-c2ccc3ncc4ccc(=O)n(-c5cccc(C(F)(F)F)c5)c4c3c2)cn1 , what is it? 100

And then COc1cc(N2CCN(C)CC2)ccc1Nc1nc(N)c(C(=O)c2c(Cl)cccc2Cl)s1 , what is it? 100

And then C[C@@H](Oc1cc(-n2cnc3ccc(CN4CCN(C)CC4)cc32)sc1C(N)=O)c1ccccc1C(F)(F)F , what is it? 87

---

biological target: MAPKAPK5 (human); assay: KINOMEscan competition binding; conditions: compound 10.0 µM
Quick list: kinase still bound, per cent of control per entry.
Please reply with the bare figure in % and do not write the unit itself.

# count of solved cases: 3
O=C(O)c1ccc(Nc2ncc3c(n2)-c2ccc(Cl)cc2C(c2c(F)cccc2F)=NC3)cc1
100
C=CC(=O)Nc1cc(NC(=O)c2ccc(C)c(NC(=O)c3ccno3)c2)cc(C(F)(F)F)c1
83
COc1cc(C(=O)NC2CCN(C)CC2)ccc1Nc1ncc2c(n1)N(C1CCCC1)CCC(=O)N2C(C)C
100

Bench note: what kinase still bound, per cent of control did Nc1ccc(-c2ccc3ncc4ccc(=O)n(-c5cccc(C(F)(F)F)c5)c4c3c2)cn1 show? 100

And then O=C(NOC[C@H](O)CO)c1ccc(F)c(F)c1Nc1ccc(I)cc1F , what is it? 100

And then Cc1ccc(NC(=O)c2cccc(C(C)(C)C#N)c2)cc1Nc1ccc2ncn(C)c(=O)c2c1 , what is it? 100

---

molecular target: CLK3 (human) (UniProt P49761); experiment: KINOMEscan competition binding; conditions: compound 10.0 µM
Sequence (P49761 whole entry, looked up): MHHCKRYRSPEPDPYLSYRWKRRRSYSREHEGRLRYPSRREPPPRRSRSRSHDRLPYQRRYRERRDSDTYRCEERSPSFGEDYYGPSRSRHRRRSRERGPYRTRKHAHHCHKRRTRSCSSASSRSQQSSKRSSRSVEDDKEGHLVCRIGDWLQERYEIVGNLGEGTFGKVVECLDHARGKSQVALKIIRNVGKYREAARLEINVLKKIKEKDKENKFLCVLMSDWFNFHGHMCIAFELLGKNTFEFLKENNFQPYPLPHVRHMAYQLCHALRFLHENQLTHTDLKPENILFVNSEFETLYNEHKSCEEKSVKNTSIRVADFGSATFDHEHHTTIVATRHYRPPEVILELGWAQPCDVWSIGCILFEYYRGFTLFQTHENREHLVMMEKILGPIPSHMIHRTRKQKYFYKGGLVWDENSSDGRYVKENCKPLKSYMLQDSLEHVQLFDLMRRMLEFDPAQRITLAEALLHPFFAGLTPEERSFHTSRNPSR
measurement type: kinase still bound, per cent of control (%)
Please reply with the bare figure in % and do not write the unit itself.

# count of solved cases: 3
O=C(O)c1ccc(Nc2ncc3c(n2)-c2ccc(Cl)cc2C(c2c(F)cccc2F)=NC3)cc1
14
O=C1Nc2ccc(I)cc2/C1=C/c1cc(Br)c(O)c(Br)c1
84
CCCS(=O)(=O)Nc1ccc(F)c(C(=O)c2c[nH]c3ncc(-c4ccc(Cl)cc4)cc23)c1F
92

Bench note: what kinase still bound, per cent of control did Cn1c(=O)n(-c2ccc(C(C)(C)C#N)cc2)c2c3cc(-c4cnc5ccccc5c4)ccc3ncc21 show? 100

And then COc1cc(C(=O)NC2CCN(C)CC2)ccc1Nc1ncc2c(n1)N(C1CCCC1)CCC(=O)N2C(C)C , what is it? 100

And then CN(C)C/C=C/C(=O)Nc1cccc(Nc2ncc3c(n2)N(C)c2ccccc2C(=O)N3C)c1 , what is it? 82

And then COc1cc(N2CCN(C)CC2)ccc1Nc1nc(N)c(C(=O)c2c(Cl)cccc2Cl)s1 , what is it? 2

And then Cc1ccc(NC(=O)c2cccc(C(C)(C)C#N)c2)cc1Nc1ccc2ncn(C)c(=O)c2c1 , what is it? 100

And then Cc1ccc2nc(NCCN)c3ncc(C)n3c2c1 , what is it? 47

And then OCCCNc1cc(-c2ccnc(Nc3cccc(Cl)c3)n2)ccn1 , what is it? 100

And then O=C(NOC[C@H](O)CO)c1ccc(F)c(F)c1Nc1ccc(I)cc1F , what is it? 100

And then C=CC(=O)Nc1cc(NC(=O)c2ccc(C)c(NC(=O)c3ccno3)c2)cc(C(F)(F)F)c1 , what is it? 100

And then COc1cc(C(=O)NC2CCN(C)CC2)ccc1Nc1ncc2c(n1)N(C1CCCC1)C(C)CC(=O)N2C (stereo unspecified) , what is it? 100

And then CCN1CCN(Cc2ccc(Nc3ncc4c(n3)N(C)c3ccccc3C(=O)N4C)cc2C(F)(F)F)CC1 , what is it? 92

And then Cc1ccc(C(=O)Nc2cccc(C(F)(F)F)c2)cc1Nc1cncc(C(N)=O)c1 , what is it? 100

And then N#Cc1c(NC(=O)c2cccc3ccccc23)sc2c1CCCC2 , what is it? 72

---

biological target: MATK (human) (UniProt P42679); test: KINOMEscan competition binding; settings: compound 10.0 µM
Sequence (P42679 whole entry, looked up): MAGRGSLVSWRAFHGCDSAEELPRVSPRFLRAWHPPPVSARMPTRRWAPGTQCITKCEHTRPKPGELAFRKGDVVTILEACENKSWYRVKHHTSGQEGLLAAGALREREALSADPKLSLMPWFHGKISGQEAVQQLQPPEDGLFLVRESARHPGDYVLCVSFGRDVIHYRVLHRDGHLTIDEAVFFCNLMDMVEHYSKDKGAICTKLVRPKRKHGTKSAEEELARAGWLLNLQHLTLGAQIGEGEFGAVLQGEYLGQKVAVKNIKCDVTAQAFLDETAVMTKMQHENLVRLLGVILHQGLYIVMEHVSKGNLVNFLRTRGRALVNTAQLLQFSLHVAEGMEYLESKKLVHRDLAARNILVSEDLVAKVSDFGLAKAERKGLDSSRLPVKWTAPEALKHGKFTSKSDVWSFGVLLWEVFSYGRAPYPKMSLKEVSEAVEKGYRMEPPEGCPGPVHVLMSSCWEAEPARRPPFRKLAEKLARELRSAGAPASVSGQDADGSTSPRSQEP
Quick rule for you: kinase still bound, per cent of control under 90% gets MET, anything else gets NOT MET.

CN(C)C/C=C/C(=O)Nc1cccc(Nc2ncc3c(n2)N(C)c2ccccc2C(=O)N3C)c1
MET
O=C(O)c1ccc(Nc2ncc3c(n2)-c2ccc(Cl)cc2C(c2c(F)cccc2F)=NC3)cc1
MET

Take the molecule COc1cc(N2CCN(C)CC2)ccc1Nc1nc(N)c(C(=O)c2c(Cl)cccc2Cl)s1 and say whether its kinase still bound, per cent of control is less than 90%. MET

And then O=C1Nc2ccc(I)cc2/C1=C/c1cc(Br)c(O)c(Br)c1 , what is it? NOT MET

And then CCN1CCN(Cc2ccc(Nc3ncc4c(n3)N(C)c3ccccc3C(=O)N4C)cc2C(F)(F)F)CC1 , what is it? NOT MET

And then C[C@@H](Oc1cc(-n2cnc3ccc(CN4CCN(C)CC4)cc32)sc1C(N)=O)c1ccccc1C(F)(F)F , what is it? MET

And then N#Cc1c(NC(=O)c2cccc3ccccc23)sc2c1CCCC2 , what is it? NOT MET

---

biological target: DCLK3 (human); assay: KINOMEscan competition binding; conditions: compound 10.0 µM
measurement type: kinase still bound, per cent of control (%)
Please reply with the bare figure in % and do not write the unit itself.

# count of solved cases: 4
COc1cc(C(=O)NC2CCN(C)CC2)ccc1Nc1ncc2c(n1)N(C1CCCC1)C(C)CC(=O)N2C (centres undefined)
100
C=CC(=O)Nc1cc(NC(=O)c2ccc(C)c(NC(=O)c3ccno3)c2)cc(C(F)(F)F)c1
100
N#Cc1c(NC(=O)c2cccc3ccccc23)sc2c1CCCC2
100
CCN1CCN(Cc2ccc(Nc3ncc4c(n3)N(C)c3ccccc3C(=O)N4C)cc2C(F)(F)F)CC1
68

Bench note: what kinase still bound, per cent of control did C=CC(=O)Nc1cccc(Oc2nc(Nc3ccc(N4CCN(C)CC4)cc3OC)ncc2Cl)c1 show? 0.35

And then O=C(O)c1ccc(Nc2ncc3c(n2)-c2ccc(Cl)cc2C(c2c(F)cccc2F)=NC3)cc1 , what is it? 92

And then CN(C)C/C=C/C(=O)Nc1cccc(Nc2ncc3c(n2)N(C)c2ccccc2C(=O)N3C)c1 , what is it? 0.5

And then CCOc1cc2ncc(C#N)c(Nc3ccc(OCc4ccccn4)c(Cl)c3)c2cc1NC(=O)/C=C/CN(C)C , what is it? 100

And then CCCS(=O)(=O)Nc1ccc(F)c(C(=O)c2c[nH]c3ncc(-c4ccc(Cl)cc4)cc23)c1F , what is it? 47

---

Quick list: kinase still bound, per cent of control per entry.
target: MAPK6 (human) (UniProt Q16659); assay: KINOMEscan competition binding; details: compound 10.0 µM
Sequence (Q16659 whole entry, looked up): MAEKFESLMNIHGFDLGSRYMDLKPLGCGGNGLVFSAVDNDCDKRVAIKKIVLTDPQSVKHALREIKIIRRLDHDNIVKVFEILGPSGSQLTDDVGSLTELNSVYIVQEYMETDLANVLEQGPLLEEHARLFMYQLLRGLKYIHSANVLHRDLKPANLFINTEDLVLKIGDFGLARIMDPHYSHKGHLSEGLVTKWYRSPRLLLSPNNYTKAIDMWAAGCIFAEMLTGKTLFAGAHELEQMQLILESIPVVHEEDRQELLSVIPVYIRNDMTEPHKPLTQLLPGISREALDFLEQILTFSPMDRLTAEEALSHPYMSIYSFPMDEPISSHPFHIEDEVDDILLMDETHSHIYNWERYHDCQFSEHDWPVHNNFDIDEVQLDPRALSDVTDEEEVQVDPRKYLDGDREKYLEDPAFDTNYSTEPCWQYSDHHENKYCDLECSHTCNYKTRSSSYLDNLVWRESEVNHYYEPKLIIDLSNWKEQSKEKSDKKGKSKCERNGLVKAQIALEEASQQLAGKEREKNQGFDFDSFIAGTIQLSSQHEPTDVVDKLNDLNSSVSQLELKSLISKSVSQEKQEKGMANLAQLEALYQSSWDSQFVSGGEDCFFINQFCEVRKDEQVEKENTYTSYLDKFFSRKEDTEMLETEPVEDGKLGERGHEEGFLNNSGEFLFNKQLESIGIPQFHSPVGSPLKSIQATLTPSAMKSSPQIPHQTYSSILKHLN
Please reply with the bare figure in % and do not write the unit itself.

O=C(NC1CC1)c1cccc(-c2ccc3c(NC(=O)C4CC4)n[nH]c3c2)c1
78
Cc1ccc(NC(=O)c2cccc(C(C)(C)C#N)c2)cc1Nc1ccc2ncn(C)c(=O)c2c1
100
COc1cc(C(=O)NC2CCN(C)CC2)ccc1Nc1ncc2c(n1)N(C1CCCC1)C(C)CC(=O)N2C (stereo not given)
100
N#Cc1c(NC(=O)c2cccc3ccccc23)sc2c1CCCC2
86
O=C(NOC[C@H](O)CO)c1ccc(F)c(F)c1Nc1ccc(I)cc1F
83

# get_value(readout= kinase still bound, per cent of control, system= MAPK6 (human) (UniProt Q16659)) for C=CC(=O)Nc1cc(NC(=O)c2ccc(C)c(NC(=O)c3ccno3)c2)cc(C(F)(F)F)c1 100

And then CCOc1cc2ncc(C#N)c(Nc3ccc(OCc4ccccn4)c(Cl)c3)c2cc1NC(=O)/C=C/CN(C)C , what is it? 100

And then O=C(O)c1ccc(Nc2ncc3c(n2)-c2ccc(Cl)cc2C(c2c(F)cccc2F)=NC3)cc1 , what is it? 92

And then Cc1cc([C@@H](C)Nc2ccccc2C(=O)O)c2nc(N3CCOCC3)cc(=O)n2c1 , what is it? 100

And then Cc1ccc2nc(NCCN)c3ncc(C)n3c2c1 , what is it? 27
